molecular target: full-length proMMP9(1-707) activation by catalytic MMP3 (Homo sapiens, UniProt P14780, R574P); construct: MMP3: E. coli; test: proMMP9/MMP3 P126 Activation Assay
Sequence (P14780 20-707 R574P): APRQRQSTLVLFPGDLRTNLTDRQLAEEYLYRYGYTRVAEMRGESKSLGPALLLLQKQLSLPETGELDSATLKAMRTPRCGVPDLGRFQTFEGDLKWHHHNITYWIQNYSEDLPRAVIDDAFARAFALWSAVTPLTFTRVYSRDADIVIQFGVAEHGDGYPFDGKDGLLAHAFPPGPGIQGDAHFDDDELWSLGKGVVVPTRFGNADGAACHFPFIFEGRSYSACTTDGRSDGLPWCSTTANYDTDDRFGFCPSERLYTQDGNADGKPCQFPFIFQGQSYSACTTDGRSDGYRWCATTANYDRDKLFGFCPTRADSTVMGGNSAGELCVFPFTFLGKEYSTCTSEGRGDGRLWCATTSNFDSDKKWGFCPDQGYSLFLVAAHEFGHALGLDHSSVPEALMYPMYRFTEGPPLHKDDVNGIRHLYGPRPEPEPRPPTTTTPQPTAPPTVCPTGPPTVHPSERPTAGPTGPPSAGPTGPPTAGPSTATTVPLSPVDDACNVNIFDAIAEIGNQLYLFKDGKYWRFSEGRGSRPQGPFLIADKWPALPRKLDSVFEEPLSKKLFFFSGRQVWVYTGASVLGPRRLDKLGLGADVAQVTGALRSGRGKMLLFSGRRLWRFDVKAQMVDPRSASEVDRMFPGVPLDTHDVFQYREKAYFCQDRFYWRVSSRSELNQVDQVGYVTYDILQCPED
pIC50: −log10 of the molar value.
pIC50 values by entry
value-type: pIC50

{"smiles-string": "CC(C)Oc1ccc(S(N)(=O)=O)cc1Nc1nc2c(ccc3c2ncn3C)s1", "value-type": "pIC50", "measured-number": 6.74}
{"smiles-string": "CC(C)Oc1ccc(C(N)=O)cc1Nc1nc2c(ccc3[nH]c(=O)[nH]c32)s1", "value-type": "pIC50", "measured-number": 6.08}
{"smiles-string": "CCS(=O)(=O)c1ccc(OC)c(Nc2nc3c(ccc4c3ncn4C)s2)c1", "value-type": "pIC50", "measured-number": 6.47}
{"smiles-string": "COc1ccc(C)cc1Nc1nc2c(ccc3c2ncn3C)s1", "value-type": "pIC50", "measured-number": 6.14}
{"smiles-string": "CC(C)Oc1ccc(C(N)=O)cc1Nc1nc2c(ccc3[nH]cnc32)s1", "value-type": "pIC50", "measured-number": 6.26}

Data credit: patent US20120129811A1
